- METHOD_SUMMARY: RP, Waters ACQUITY UPLC HSS T3, 100 × 2.1 mm, 1.8 µm, 30 °C, 0.3 mL/min, estimated dead time 0.73 min; A: water + 0.1% formic acid, pH 3; B: methanol + 0.1% formic acid, pH 3; gradient (min/%B) 0/0 6/0 56/100 60/100
- RECORDED_CONDITIONS: stereoisomer not certain
EXPERIMENTAL_READOUT: LC retention time
Provide a numeric answer, followed by its unit.

Record O=C(O)c1ccc[n+](C2OC(COP(=O)([O-])O)C(O)C2O)c1 (centres undefined) [nicotinic acid mononucleotide] . Reported LC retention time: 2.1 min

Notebook: "NC(=O)NCCC[C@H](N)C(=O)O" , LC retention time read as 1.4 min

Recorded LC retention time (molecule COc1cc(-c2oc3cc(=O)cc4occc(c2OC2OC(CO)C(O)C(O)C2O)c43)cc(OC)c1O (centres undefined) ): 27 min

Recorded LC retention time (molecule O=C(O)C(O)C(O)C(O)C(O)C(=O)O (centres undefined) ): 1.3 min

The molecule identified as O=c1ccc2cc(OC3OC(CO)C(O)C(O)C3O)c(O)cc2o1 (centres undefined) registered its LC retention time at 17.8 min

Just so you know, measured LC retention time for NC(=O)CCCCC1CCSS1 (stereo not drawn) [Alpha lipoamide] came out at 29 min

# LC retention time of Oc1ccc(C2Oc3cc(O)cc(O)c3CC2O)cc1 (centres undefined) [epiafzelechin] = 24.4 min

LC retention time measured on CCCCCCCCCCCCCCCCCCCCCC(=O)OC [methyl behenate] = 61.2 min

What the record says about O=C(CCc1ccc(O)cc1)c1c(O)cc(O)cc1OC1OC(CO)C(O)C(O)C1O (centres undefined) : LC retention time is 29.6 min

CC(CCC(=O)O)C1CCC2C3C(O)CC4CC(O)CCC4(C)C3CCC12C (centres undefined) yielded LC retention time of 49.4 min

// field: LC retention time; key: "O=c1c(O)c(-c2ccc(O)cc2O)oc2cc(O)cc(O)c12" ; value = 31.9 min

Per the record, O=CC(O)C(O)C(O)CO (centres undefined) has LC retention time of 1.41 min

The molecule listed as COc1cc(-c2[o+]c3cc(O)cc(O)c3cc2OC2OCC(O)C(O)C2O)ccc1O (centres undefined) [peonidin-3-arabinoside] has a reported LC retention time of 24.8 min

So, "O=C(O)c1cc2ccccc2[nH]1" ? Its LC retention time was 38.5 min

LC retention time in this record for "O=c1cc(-c2ccc(O)c(O)c2)oc2cc(O)cc(O)c12" : 34.7 min

Note to self: LC retention time recorded for "O=c1cc(-c2ccccc2)oc2cc(O)cc(O)c12" was 40.9 min

Kindly note the recorded LC retention time for O=C(O)[C@H](O)[C@@H](O)C(=O)O [L-(+)-tartaric acid] , which is 1.51 min

Reported LC retention time for "COc1cc(/C=C/C(=O)O)ccc1O" was 25.9 min

// LC retention time lookup, molecule = CCOC(=O)Cc1c[nH]c2ccccc12 [ethyl indole-3-acetate] , result: 35.5 min

The origin of these recorded values is the RepoRT retention time repository (doi:10.1007/s11306-011-0298-z).
